- tested.system: F508delCFTR (Homo sapiens, UniProt P13569, DEL508-508)
- Construct: expressed in transfected cells; host or cells: CFBE41o- human lung-derived epithelial cells (CFBE4lo-F508delCFTR-HRP), doxycycline-inducible
- Sequence (P13569 with tags, fused parts or gaps DEL508-508): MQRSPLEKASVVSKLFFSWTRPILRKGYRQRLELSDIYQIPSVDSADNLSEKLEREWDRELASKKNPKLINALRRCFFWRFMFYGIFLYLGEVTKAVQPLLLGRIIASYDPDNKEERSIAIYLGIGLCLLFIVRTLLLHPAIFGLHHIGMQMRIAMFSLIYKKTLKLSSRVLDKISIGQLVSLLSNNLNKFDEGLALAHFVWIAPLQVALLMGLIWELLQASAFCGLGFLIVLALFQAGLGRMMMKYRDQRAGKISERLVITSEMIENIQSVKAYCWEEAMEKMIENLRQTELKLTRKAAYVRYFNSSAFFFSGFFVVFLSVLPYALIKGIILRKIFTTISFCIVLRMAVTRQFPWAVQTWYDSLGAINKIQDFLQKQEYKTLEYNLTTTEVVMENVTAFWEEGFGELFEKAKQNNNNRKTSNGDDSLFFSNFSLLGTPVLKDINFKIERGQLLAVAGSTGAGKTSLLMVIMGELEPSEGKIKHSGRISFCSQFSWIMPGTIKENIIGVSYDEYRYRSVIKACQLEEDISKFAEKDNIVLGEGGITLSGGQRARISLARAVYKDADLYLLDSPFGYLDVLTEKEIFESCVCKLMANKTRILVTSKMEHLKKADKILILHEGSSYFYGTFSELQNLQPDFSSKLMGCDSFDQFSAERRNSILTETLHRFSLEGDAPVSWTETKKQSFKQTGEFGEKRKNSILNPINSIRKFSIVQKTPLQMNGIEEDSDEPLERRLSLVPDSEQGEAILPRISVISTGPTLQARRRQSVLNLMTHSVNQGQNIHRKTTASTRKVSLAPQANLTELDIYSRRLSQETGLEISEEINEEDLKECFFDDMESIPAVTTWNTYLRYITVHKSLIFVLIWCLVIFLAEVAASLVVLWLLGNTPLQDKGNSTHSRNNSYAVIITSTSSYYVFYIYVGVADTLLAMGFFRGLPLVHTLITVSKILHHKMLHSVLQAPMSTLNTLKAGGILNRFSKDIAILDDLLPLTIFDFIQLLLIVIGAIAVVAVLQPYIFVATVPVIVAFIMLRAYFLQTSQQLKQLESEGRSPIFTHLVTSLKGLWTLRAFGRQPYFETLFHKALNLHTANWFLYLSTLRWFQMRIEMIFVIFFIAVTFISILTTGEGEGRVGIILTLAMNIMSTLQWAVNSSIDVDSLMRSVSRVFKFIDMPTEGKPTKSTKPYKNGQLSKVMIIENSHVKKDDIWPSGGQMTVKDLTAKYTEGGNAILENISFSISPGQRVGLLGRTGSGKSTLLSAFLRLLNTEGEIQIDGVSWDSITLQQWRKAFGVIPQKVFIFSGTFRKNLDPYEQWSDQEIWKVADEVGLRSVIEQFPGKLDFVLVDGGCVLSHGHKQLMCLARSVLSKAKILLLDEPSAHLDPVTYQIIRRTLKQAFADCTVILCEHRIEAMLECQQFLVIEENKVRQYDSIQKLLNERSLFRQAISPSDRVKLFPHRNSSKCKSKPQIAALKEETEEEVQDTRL
- measurement.notes: Cell Surface Expression-Horse Radish Peroxidase (CSE-HRP) Assay;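 for Maximum % activity (without co-corrector): percent of the 2 µM on-plate positive control corrector response above DMSO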
- Assay type: cell-based
- cond: test compound without co-corrector; maximum at any tested concentration, normalized to on-plate positive control; read-out: Maximum % activity (without co-corrector)
assay.metric: Emax

INSERT INTO assay_data (compound, recorded_result) VALUES
  ('COc1cc(C(F)(F)F)ccc1CN[C@@H]1[C@@H](C(C)(C)C)[C@H](C(=O)O)N(C(=O)C2CCCCC2)[C@@H]1c1ccccc1OC (stereo in doubt) [III-40]', '100 to 200%'),
  ('CC(C)(O)c1cc(Cl)nc(N[C@H]2[C@H](C(C)(C)C)[C@@H](C(=O)O)N(C(=O)C3CCCCC3)[C@H]2c2ccccc2)c1 [III-147]', '< 100%'),
  ('CC(C)(C)[C@H]1[C@H](NCc2cc(Cl)c3c(c2)OCO3)[C@H](c2ccccc2)N(C(=O)C2CCCCC2)[C@@H]1C(=O)O [III-140]', '< 100%'),
  ('COc1cnc(C2CCCCC2)cc1CN[C@H]1[C@H](C(C)(C)C)[C@@H](C(=O)O)N(C(=O)C2CCCCC2)[C@H]1c1ccccc1 [II-404]', '< 100%'),
  ('Cc1cc(C(F)(F)F)cc(N[C@H]2[C@H](C(C)(C)C)[C@@H](C(=O)O)N(C(=O)C3CCCCC3C(F)(F)F)[C@H]2c2cccnc2N(C)C)n1 (stereo partly drawn) [II-502]', '< 100%'),
  ('COc1ccc(C(F)(F)F)cc1CN[C@H]1[C@H](C(C)(C)C)[C@@H](C(=O)O)N(C(=O)C2CCCCC2)[C@H]1c1ncccc1Cl [III-164]', '< 100%');

====

- tested.system: F508delCFTR (Homo sapiens, UniProt P13569, DEL508-508)
- Construct: expressed in transfected cells; host or cells: CFBE41o- human lung-derived epithelial cells (CFBE4lo-F508delCFTR-HRP), doxycycline-inducible
- measurement.notes: Cell Surface Expression-Horse Radish Peroxidase (CSE-HRP) Assay;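 for Maximum % activity (with co-corrector): co-corrector and positive control are both the same reference corrector at 2 µM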
- Assay type: cell-based
- cond: with co-corrector (2 μM of 3-[(2R,4R)-4-({[1-(2,2-difluoro-1,3-benzodioxol-5-yl)cyclopropyl]carbonyl}amino)-7-methoxy-3,4-dihydro-2H-chromen-2-yl]benzoic acid); maximum at any tested concentration, normalized to on-plate positive control
- Experimental: Cell Surface Expression-Horse Radish Peroxidase (CSE-HRP) Assay The development was achieved by expressing the F508delCFTR mutation along with a horseradish peroxidase (HRP) in the fourth exofacial loop, and then measuring the HRP activity using luminescence readout from these cells, CFBE4lo-F508delCFTR-HRP, that were incubated overnight with the test corrector compounds, either without or with the co-corrector. […] The raw counts from the experiment were analyzed using Accelrys® Assay Explorer v3.3. […]
assay.metric: Maximum % activity (with co-corrector)

INSERT INTO results (compound, assay_metric, recorded_result) VALUES
  ('COc1ccc(C(C)(C)C)cc1CN[C@H]1[C@H](C(C)(C)C)[C@@H](C(=O)O)N(C(=O)[C@@H](C)c2ccccc2)[C@H]1c1cccnc1OC', 'Maximum % activity (with co-corrector)', '++ (≥150 and <350)'),
  ('COc1nc(C(C)(C)C)ccc1CN[C@H]1[C@H](C(C)(C)C)[C@@H](C(=O)O)N(C(=O)OC(C)C)[C@H]1c1ccccc1F', 'Maximum % activity (with co-corrector)', '+++ (≥350)'),
  ('COc1ncc(C(F)(F)F)cc1CN[C@H]1[C@H](C(C)(C)C)[C@@H](C(=O)O)N(C(=O)OC(C)C)[C@H]1c1cccnc1N1CCC1', 'Maximum % activity (with co-corrector)', '+++ (≥350)'),
  ('COc1ccc(C2(C)CCC2)cc1CN[C@H]1[C@H](C(C)(C)C)[C@@H](C(=O)O)N(C(=O)OC(C)C)[C@H]1c1ccccc1', 'Maximum % activity (with co-corrector)', '+++ (≥350)'),
  ('COc1ncc(C(F)(F)F)cc1CN[C@H]1[C@H](C(C)(C)C)[C@@H](C(=O)O)N(C(=O)[C@@H]2CCCC(F)(F)C2)[C@H]1c1cccnc1OC', 'Maximum % activity (with co-corrector)', '+++ (≥350)'),
  ('COc1ccc(C(F)(F)F)cc1CN[C@@H]1[C@@H](C(C)(C)C)[C@H](C(=O)O)N(C(=O)C(OC)c2ccccc2)[C@@H]1c1cccnc1N(C)C (relative stereo)', 'Maximum % activity (with co-corrector)', '++ (≥150 and <350)');

====

Each record here notes measured pEC50.
- tested.system: F508delCFTR (Homo sapiens, UniProt P13569, DEL508-508)
- Construct: expressed in transfected cells; host or cells: CFBE41o- human lung-derived epithelial cells (CFBE4lo-F508delCFTR-HRP), doxycycline-inducible
- measurement.notes: Cell Surface Expression-Horse Radish Peroxidase (CSE-HRP) Assay
- Format: cell-based
- cond: with co-corrector (2 μM of 3-[(2R,4R)-4-({[1-(2,2-difluoro-1,3-benzodioxol-5-yl)cyclopropyl]carbonyl}amino)-7-methoxy-3,4-dihydro-2H-chromen-2-yl]benzoic acid); read-out: EC50 (with co-corrector)
pEC50: −log10 of the molar value.
assay.metric: pEC50

INSERT INTO assay_data (molecule, tested_system, recorded_result) VALUES
  ('COc1ncc(C(F)(F)F)cc1N[C@@H]1[C@@H](C(C)(C)C)[C@H](C(=O)O)N(C(=O)C2CCCCC2)[C@@H]1c1ccccc1 (racemic) [Example I-15]', 'F508delCFTR (Homo sapiens, UniProt P13569, DEL508-508)', '> 6.00'),
  ('COc1ccc(C(C)(C)C)cc1CN[C@H]1[C@H](C(C)(C)C)[C@@H](C(=O)O)N(C(=O)[C@@H](C)[C@H]2CCCCO2)[C@H]1c1ccccc1 (relative stereo) [II-455]', 'F508delCFTR (Homo sapiens, UniProt P13569, DEL508-508)', '5.00 to 6.00'),
  ('COc1ccc(C23CC4CC(CC(C4)C2)C3)cc1CN[C@H]1[C@H](C(C)(C)C)[C@@H](C(=O)O)N(C(=O)C2CCCCC2)[C@H]1c1cccnc1N(C)C [III-183]', 'F508delCFTR (Homo sapiens, UniProt P13569, DEL508-508)', '> 6.00'),
  ('CC(C)(C)[C@H]1[C@H](Nc2cccc(C(F)(F)F)c2)[C@H](c2ccccc2)N(C(=O)C2CCCCC2)[C@@H]1C(=O)O [Example I-56]', 'F508delCFTR (Homo sapiens, UniProt P13569, DEL508-508)', '> 6.00'),
  ('COc1ccc2c(c1)[C@](C)(C(=O)N1[C@H](C(=O)O)[C@@H](C(C)(C)C)[C@H](NCc3cc(C(C)(C)C)ccc3OC)[C@@H]1c1cccnc1OC)CC2 [II-570]', 'F508delCFTR (Homo sapiens, UniProt P13569, DEL508-508)', '5.00 to 6.00'),
  ('Cc1ccccc1CN[C@@H]1[C@@H](C(C)(C)C)[C@H](C(=O)O)N(C(=O)CC2CCCC2)[C@@H]1c1ccccc1 (racemic) [III-2]', 'F508delCFTR (Homo sapiens, UniProt P13569, DEL508-508)', '5.00 to 6.00');

====

- tested.system: F508delCFTR (Homo sapiens, UniProt P13569, DEL508-508)
- Construct: expressed in transfected cells; host or cells: CFBE41o- human lung-derived epithelial cells (CFBE4lo-F508delCFTR-HRP), doxycycline-inducible
- measurement.notes: Cell Surface Expression-Horse Radish Peroxidase (CSE-HRP) Assay
- Assay type: cell-based
- cond: with co-corrector (2 μM of 3-[(2R,4R)-4-({[1-(2,2-difluoro-1,3-benzodioxol-5-yl)cyclopropyl]carbonyl}amino)-7-methoxy-3,4-dihydro-2H-chromen-2-yl]benzoic acid); read-out: EC50 (with co-corrector)
The molecules listed here are annotated with their EC50.
assay.metric: EC50

INSERT INTO measurements (molecule, assay_metric, recorded_result) VALUES
  ('CC(C)(C)[C@@H]1[C@@H](NCc2cc(C(F)(F)F)ccc2OCCOC(F)(F)F)[C@@H](c2ccccc2)N(C(=O)C2CCCCC2)[C@H]1C(=O)O (racemic)', 'EC50', '1000 to 10000 nM'),
  ('COc1ccc(C(C)(C)C)cc1CN[C@H]1[C@H](C(C)(C)C)[C@@H](C(=O)O)N(C(=O)C2(C)CCc3c(Cl)cccc32)[C@H]1c1ccccc1 (stereo partly drawn)', 'EC50', '1000 to 10000 nM'),
  ('COc1ncc(C(F)(F)F)cc1CN[C@H]1[C@H](C(C)(C)C)[C@@H](C(=O)O)N(C(=O)[C@H]2CCCCO2)[C@H]1c1cccnc1N(C)C', 'EC50', '1000 to 10000 nM'),
  ('COc1ccc(C(F)(F)F)cc1CN[C@H]1[C@H](C(C)(C)C)[C@@H](C(=O)O)N(C(=O)C2CC(C)CC(C)C2)[C@H]1c1ccccc1 (stereo partly drawn)', 'EC50', '< 1000 nM'),
  ('COc1ccc(C(C)(C)C)cc1CN[C@H]1[C@H](C(C)(C)C)[C@@H](C(=O)O)N(C(=O)[C@@H]2CCCCO2)[C@H]1c1ccccc1F', 'EC50', '< 1000 nM'),
  ('COc1ccc(C(F)(F)F)cc1CN[C@@H]1[C@@H](C(C)(C)C)[C@H](C(=O)O)N(C(=O)C2C3COCC32)[C@@H]1c1ccccc1N(C)C (mixture of isomers)', 'EC50', '1000 to 10000 nM');

Cited source: patent US20180099931A1
